target: T1, HLA-A2.1 on T2 cells (human); assay: peptide binding to HLA-A2.1+ T2 cells, complex stability; Brefeldin A 2 hr (T2 alone 200)
T1 construct: Peptide-receptive HLA-A2.1 on T2 cells; also called HLA-A2.1 MHC class I molecules
Grouping key: binding score (HLA-A2.1 on T2 cells). Bins: category 1 = under 300, category 2 = from 300 up to 600, category 3 = 600 and over

BINDER	CLASS_LABEL
YIIIGDSPV (Modified CD33 peptide) [YIIIGDSPV (SEQ ID NO: 11)]	category 1
ALISGDSPV (Modified CD33 peptide) [ALISGDSPV (SEQ ID NO: 16)]	category 3
YIISGISPV (Modified CD33 peptide) [YIISGISPV (SEQ ID NO: 6)]	category 3
YIILGDSPV (Modified CD33 peptide) [YIILGDSPV (SEQ ID NO: 12)]	category 2
YLISGDSPV (Modified CD33 peptide) [YLISGDSPV (SEQ ID NO: 7)]	category 3
YIISGDSPL (Modified CD33 peptide) [YIISGDSPL (SEQ ID NO: 15)]	category 2
YIISGDLPV (Modified CD33 peptide) [YIISGDLPV (SEQ ID NO: 13)]	category 2
TIQLNVTYV (Native CD33 nonamer, extracellular domain; also called CD33226-234) [CD33 peptide TIQLNVTYV (residues 226-234, SEQ ID NO: 9)]	category 1
YIISGDSWV (Modified CD33 peptide) [YIISGDSWV (SEQ ID NO: 14)]	category 1

// data source = patent US7527793
